All figures here come from ChEMBL document CHEMBL2321765.

assay-details: Half life in rat
Type: ADME, organism-based
particulars: in vivo
test-readout: half-life (min)

Q) What does the record list as half-life for Cn1cc(-c2cnc3ccc4ccc(CS(=O)(=O)NCc5ccccn5)cc4c(=O)c3c2)cn1 ?
A) 48

Q) Similarly, CN(C)S(=O)(=O)Nc1ccc2ccc3ncc(-c4cnn(C)c4)cc3c(=O)c2c1 ?
A) 42

====

assay-details: Volume of distribution at steady state in rat
Assay type: ADME, organism-based
particulars: in vivo, read-out: Vdss
test-readout: Vd (L/kg)

a. CN(C)S(=O)(=O)Nc1ccc2ccc3ncc(-c4cnn(C)c4)cc3c(=O)c2c1
b. Cn1cc(-c2cnc3ccc4ccc(CS(=O)(=O)NCc5ccccn5)cc4c(=O)c3c2)cn1 [MK-8033]
Q) // max by Vd over [ a , b ] Please respond with the label that marks your chosen entry.
A) a
(a: 2.5 L/kg, b: 0.4 L/kg)

====

assay-details: Oral bioavailability in dog
Type: ADME, organism-based, Canis lupus familiaris
particulars: in vivo
test-readout: bioavailability (%)

a. CN(C)S(=O)(=O)Nc1ccc2ccc3ncc(-c4cnn(C)c4)cc3c(=O)c2c1
b. Cn1cc(-c2cnc3ccc4ccc(CS(=O)(=O)NCc5ccccn5)cc4c(=O)c3c2)cn1
Q) Compare reported bioavailability values for a and b . Which is lower? Please respond with the label that marks your chosen entry.
A) a

====

system-under-test: CYP3A4 (Homo sapiens, UniProt P08684)
Sequence (P08684 whole entry): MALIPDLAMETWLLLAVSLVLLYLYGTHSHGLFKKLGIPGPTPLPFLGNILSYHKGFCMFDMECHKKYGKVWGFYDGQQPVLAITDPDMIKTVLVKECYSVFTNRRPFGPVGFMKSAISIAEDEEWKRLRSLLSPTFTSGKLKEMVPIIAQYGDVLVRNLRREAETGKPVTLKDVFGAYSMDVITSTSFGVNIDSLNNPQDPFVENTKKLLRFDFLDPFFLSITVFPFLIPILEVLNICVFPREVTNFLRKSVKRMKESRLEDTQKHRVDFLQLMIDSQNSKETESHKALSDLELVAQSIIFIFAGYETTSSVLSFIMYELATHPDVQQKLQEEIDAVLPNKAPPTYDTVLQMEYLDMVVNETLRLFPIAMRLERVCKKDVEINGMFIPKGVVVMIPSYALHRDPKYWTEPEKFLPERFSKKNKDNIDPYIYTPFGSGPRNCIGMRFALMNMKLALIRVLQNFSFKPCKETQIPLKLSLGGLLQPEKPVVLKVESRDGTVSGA
assay-details: Inhibition of CYP3A4 in human liver microsomes using testosterone as substrate at 10 uM by LC-MS-MS analysis relative to control
Assay type: ADME, Microsome
particulars: probe testosterone
test-readout: inhibition at 10 µM (%)

Example molecules with recorded inhibition at 10 µM:
Q) Provide the documented inhibition at 10 µM with CYP3A4 (Homo sapiens, UniProt P08684) as the system for Cn1cc(-c2cnc3ccc4ccc(CS(=O)(=O)NCc5ccc(F)cc5F)cc4c(=O)c3c2)cn1
A) 42

Q) Similarly, CN(C)S(=O)(=O)Cc1ccc2ccc3ncc(-c4cnn(C)c4)cc3c(=O)c2c1 ?
A) 0

Q) Similarly, Cn1cc(-c2cnc3ccc4ccc(CS(=O)(=O)N[C@@H]5CCCC[C@H]5N)cc4c(=O)c3c2)cn1 ?
A) 30

Q) Similarly, Cn1cc(-c2cnc3ccc4ccc(CS(=O)(=O)NCC5CCCCN5)cc4c(=O)c3c2)cn1 (centres undefined) ?
A) 29

Q) Similarly, Cn1cc(-c2cnc3ccc4ccc(CS(=O)(=O)NCc5cccnc5)cc4c(=O)c3c2)cn1 ?
A) 30

a. Cn1cc(-c2cnc3ccc4ccc(CS(=O)(=O)NCc5ccncc5)cc4c(=O)c3c2)cn1
b. Cn1cc(-c2cnc3ccc4ccc(CS(=O)(=O)NCCc5ccccn5)cc4c(=O)c3c2)cn1
Q) Compare reported inhibition at 10 µM values for a and b . Which is lower? Please respond with the label that marks your chosen entry.
A) b

a. Cn1cc(-c2cnc3ccc4ccc(CS(=O)(=O)NCc5cccc[n+]5[O-])cc4c(=O)c3c2)cn1
b. CNS(=O)(=O)Cc1ccc2ccc3ncc(-c4cnn(C)c4)cc3c(=O)c2c1
Q) // max by inhibition at 10 µM over [ a , b ] Please respond with the label that marks your chosen entry.
A) a
(a: 24%, b: 0%)

1. CCCNS(=O)(=O)Cc1ccc2ccc3ncc(-c4cnn(C)c4)cc3c(=O)c2c1
2. Cn1cc(-c2cnc3ccc4ccc(CS(=O)(=O)NCC5COCCO5)cc4c(=O)c3c2)cn1 (centres undefined)
Q) // max by inhibition at 10 µM over [ 1 , 2 ] Please respond with the label that marks your chosen entry.
A) 1
(1: 21%, 2: 0%)

P. Cn1cc(-c2cnc3ccc4ccc(CS(=O)(=O)NCc5cccnn5)cc4c(=O)c3c2)cn1
Q. Cn1cc(-c2cnc3ccc4ccc(CS(N)(=O)=O)cc4c(=O)c3c2)cn1
R. Cn1cc(-c2cnc3ccc4ccc(CS(=O)(=O)NCc5cnsc5)cc4c(=O)c3c2)cn1
Q) Order the items by recorded inhibition at 10 µM; the first position goes to the largest value. Rank them, then answer with their labels in that order.
A) R, P, Q
